Examples of sequences with documented pre-steady-state target cleavage rate follow.
Test system: MIWI (PIWIL1) piRISC loaded with L1MC piRNA (30 nt);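 note: 1 nM active piRISC with 0.1 nM target library at 33 °C single turnover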
Test: pre-steady-state target cleavage rate (min^-1); MIWI and MILI are mouse PIWI proteins and EfPiwi is from a freshwater sponge; tags in brackets are library labels; higher = faster piRNA-guided slicing of the target;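 note: 1 nM active piRISC with 0.1 nM target library at 33 °C single turnover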
Details: guide: L1MC piRNA 5'p-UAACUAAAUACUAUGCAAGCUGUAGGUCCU; auxiliary factor: none (no GTSF1)
The full ranking holds about 8,200 sequences; the median of “pre-steady-state target cleavage rate” is about 0.024, and the highest 2% start at about 1.3. What follows is part of a selection rich in the highest values, with near analogues and random picks from the rest.
experimental_endpoint: pre-steady-state target cleavage rate

> print(dat)
                              query.sequence  numeric.result
 1            UCCUGGUACAGCUAGGAUAGUAUUUAGUUA         0.00486
 2            UCCUGCUGCAGCUUGCAUAGUAUUUAGUUA          0.0512
 3            UCCUGGAUGUGCUUGCAUUGUAUUUAGAUA          0.0063
 4            UCGACGAACAGCUUGCAUAGUAUUUAGUAA          0.0577
 5            UCCUGGAUCAGCUUGCAUAGAAUUUAGUUA          0.0291
 6            UGGACCUACAGAUUGCAUAGUAUUUAGUUA           0.042
 7           AGGACCUGACAGCUUGCAUAGUAUUUAGUUA           0.067
 8           UGGACCUACUAGCUUGCAUAGUAUUUAGUUA          0.0509
 9            AGGUCCUACAGCUUGCAUAGUAUUUACAAA         0.00841
10            UCGACCUACAGCUUGCAAAGUAUUUAGUAA          0.0245
11            UCCUGGUACACCUUGCAUAGUAUUUUGUUA         0.00901
12            UCCUGGAUGAGCUUGCAUUGUAUUUACUUA         0.00906
13            UCCUGGAUCAGCUUGCAAACUAUUUAGUUA         0.00677
14            UGGACCUACAGCUUGCAAAGUAUUUAGUAA          0.0219
15           UCGACCUAGCAGCUUGCAUAGUAUUUAGUUA          0.0726
16           UCGACCUACAGCUUGCAUAGUAUAUUAGUUA          0.0248
17           UCCACCUAGCAGCUUGCAUAGUAUUUAGUUA          0.0454
18            UCCACCUAGAGCUUGCAUAGUAUUUAGUUA          0.0282
19           UGGACCUGACAGCUUGCAUAGUAUUUAGUUA          0.0824
20            AGGUGGUACAGCUUGCAUAGUAUUUAGAAA         0.00559
21            AGCACCUACAGCUUGCAUACUAUUUAGUUA         0.00711
22            UCGACCUUCAGCUUGCAUAGUAUUUAGUAA           0.043
23            UCCUGGAACAGCUUGCUUUGUAUUUAGUUA         0.00848
24             UCGACCUACAGCUUGCAAGUAUUUAGUUA         0.00682
25            AGCACCUAGAGCUUGCAUAGUAUUUAGUUA         0.00468
26            UCCUCGAACAGCUUGCAUAGUAUUUAGUAA          0.0424
27  UCGACCUACAGCUUGCAUAGUAUUUAGUUA [g2:g28:cont:t1A]          0.0936
28            UCCUGCUACAGCUUGCAUAGUAUUUUGUAA           0.009
29            UGGACCUGCAGCUUGCAUAGUAUUUAGUUA          0.0683
30            UCGACCUUCAGCUUGCAUAGUAUUUAGAAA          0.0103
31            AGGUCCUACAGCUUGCAUAGUAUUAAGUUA           0.054
32            AGGACCUACAGCUUGCAUAGAAUUUUGUUA          0.0183
33            UCGACCUAGAGCUUGCAUAGUAUUUAGAAA         0.00689
34            UCGACGAACAGCUUGCAUAGUAUUUAGUUA          0.0836
35            UCCUCCUACAGCUUGCAUUGUAUUUACUUA          0.0162
36            UCCUGGUUGAGCUUGCAUAGUAUUUAGAAA         0.00555
37            UCCUGGAUGAGCUUGCUUAGUUUUUAGUUA         0.00971
38  UCGACCUACAGCUUGCAUAGUAUUUAGUUG [g2:g28:cont:t1G]          0.0703
39            AGGACCUGCAGCUUGCAUAGUAUUUAGUUA          0.0689
40           UCCUGGAUGUCCUUGCAUAGUAUUUAGCUUA         0.00476
41           UCCUGGUACAGCCUUGCAUAGUAUUUAGUUA          0.0422
42           UCGACCUACAGCUUGCAUAGUAUUAUAGUUA          0.0387
43            ACGACCUACAGCUUGCAAAGUAUUUAGUUA          0.0528
44            UCGACCUUGUGCUUGCAUAGUAUUUAGUUA          0.0513
45            UCGACCUUCAGCUUGCAAAGUAUUUAGUUA          0.0401
46            UGGAGCUACUGCUUGCAUAGUAUUUAGUUA          0.0621
47            UCCUCGAACAGCUUGCAUAGUAUUUAGUUA          0.0825
48            UCCUCCUACUGCUUGCAUAGUAUUUAGAUA          0.0115
49            UCCUGGUACAGCUUGCAUAGUUUAUAGUUA          0.0135
50            UCGUGGUACAGCUUGCAUAGUAUUUAGAAA         0.00755
51            AGGACCUACAGGAUGCAUAGUAUUUAGUUA           0.023
52            UCCUCCUACACCUUGCAUAGAAUUUAGUUA         0.00682
53           AGGACCUAGCAGCUUGCAUAGUAUUUAGUUA          0.0735
54            UGGAGGAACAGCUUGCAUAGUAUUUAGUAA          0.0519
